target: human 5-HT2C(VSV) (Homo sapiens, UniProt P28335, I156V/I160V/N158S); test: cell-based
Sequence (P28335 33-458 I156V/N158S/I160V limits assumed): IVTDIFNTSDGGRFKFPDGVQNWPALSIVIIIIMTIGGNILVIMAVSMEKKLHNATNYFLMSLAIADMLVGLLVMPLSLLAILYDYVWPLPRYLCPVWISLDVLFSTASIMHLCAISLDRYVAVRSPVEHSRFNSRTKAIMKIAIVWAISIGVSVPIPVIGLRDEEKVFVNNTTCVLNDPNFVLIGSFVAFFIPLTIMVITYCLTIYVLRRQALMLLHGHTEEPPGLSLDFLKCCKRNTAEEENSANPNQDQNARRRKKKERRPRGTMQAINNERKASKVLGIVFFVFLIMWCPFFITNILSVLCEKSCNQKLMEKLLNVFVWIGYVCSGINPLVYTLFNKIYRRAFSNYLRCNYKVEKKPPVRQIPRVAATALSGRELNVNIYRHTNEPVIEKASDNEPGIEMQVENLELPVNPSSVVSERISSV
pEC50: −log10 of the molar value.
Below, each entry is listed alongside its reported pEC50.
observation_type: pEC50

[[record]]
compound = "CNCCc1cn(C)c2ccc(F)c(OCc3ccc(Cl)c(OC(F)(F)F)c3)c12"
system_tested = "human 5-HT2C(VSV) (Homo sapiens, UniProt P28335, I156V/I160V/N158S)"
observation_type = "pEC50"
value_reported = "> 5.00"

[[record]]
compound = "CCn1cc(CCN2CCC(F)(F)C2)c2c(O)cc(F)cc21"
system_tested = "human 5-HT2C(VSV) (Homo sapiens, UniProt P28335, I156V/I160V/N158S)"
observation_type = "pEC50"
value_reported = "5.00 to 6.30"

[[record]]
compound = "COc1ccc(-c2cccs2)c2c1c(CCN(C)C)cn2C"
system_tested = "human 5-HT2C(VSV) (Homo sapiens, UniProt P28335, I156V/I160V/N158S)"
observation_type = "pEC50"
value_reported = "5.00 to 6.30"

[[record]]
compound = "NCCc1cn(CC2COc3ccccc3O2)c2ccc(F)c(O)c12 (stereo not shown)"
system_tested = "human 5-HT2C(VSV) (Homo sapiens, UniProt P28335, I156V/I160V/N158S)"
observation_type = "pEC50"
value_reported = "6.30 to 9.00"

[[record]]
compound = "CCOc1c(F)ccc2c1c(CCN1CCCC1)cn2C"
system_tested = "human 5-HT2C(VSV) (Homo sapiens, UniProt P28335, I156V/I160V/N158S)"
observation_type = "pEC50"
value_reported = "6.30 to 9.00"

[[record]]
compound = "CCn1cc(CCN2Cc3ccccc3C2)c2c(OCc3ccccc3)cc(F)cc21"
system_tested = "human 5-HT2C(VSV) (Homo sapiens, UniProt P28335, I156V/I160V/N158S)"
observation_type = "pEC50"
value_reported = "5.00 to 6.30"

[[record]]
compound = "CCn1cc(CCNCCc2cccc(C(F)(F)F)c2)c2c(O)cc(F)cc21"
system_tested = "human 5-HT2C(VSV) (Homo sapiens, UniProt P28335, I156V/I160V/N158S)"
observation_type = "pEC50"
value_reported = "6.30 to 9.00"

